Recorded IC50 by entry
# system-under-test: human PDHK2 (hPDHK2) (Homo sapiens (Human))
# assay-text: Inhibitory action of PDHK activity in vitro (kinase reaction, residual PDH activity measured)
# Assay type: biochemical
# assay-conditions: PDHK inhibitory activity, class symbol of IC50

{"compound": "OCCn1cc(-c2ccc3c(c2)C(O)(C(F)(F)F)c2cccc(CO)c2-3)cn1 (stereo not drawn) [compound 590]", "IC50": "> 1000 nM"}
{"compound": "O=C(COc1ccc2c(c1)C(O)(C(F)(F)F)c1ccccc1-2)N1CCC(O)CC1 (stereo not drawn) [compound 396]", "IC50": "100 to 1000 nM"}
{"compound": "Cc1cc(-c2cnn(CC(C)(C)C(=O)O)c2)c2c(c1)C(O)(C(F)(F)F)c1ccccc1-2 (single isomer, unassigned) [compound 575]", "IC50": "< 100 nM"}
{"compound": "OC1(C(F)(F)F)c2ccccc2-c2c(Cl)cc(Cl)cc21 (stereo not drawn) [compound 21]", "IC50": "100 to 1000 nM"}
{"compound": "Cc1cc(C(=O)N2CCC2)cc2c1-c1ccccc1C2(O)C(F)(F)F (stereo not drawn) [compound 91]", "IC50": "< 100 nM"}
{"compound": "OC1(C(F)(F)F)c2ccccc2-c2ccc(-c3ccsc3)cc21 (stereo not drawn) [compound 145]", "IC50": "> 1000 nM"}
{"compound": "CN(CCOc1cc(-c2cnn(C)c2)c2c(c1)C(O)(C(F)(F)F)c1ccccc1-2)C(=O)C(C)(C)CO (stereo not drawn) [compound 489]", "IC50": "< 100 nM"}
{"compound": "NC(=O)CCOc1ccc2c(c1)C(O)(C(F)(F)F)c1ccccc1-2 (stereo not drawn) [compound 301]", "IC50": "> 1000 nM"}

Problem: Requested read-out: IC50. Entry: OC1(C(F)(F)F)c2ccccc2-c2ccc(Nc3ccccc3)cc21 (stereo not drawn) [compound 166]
Result: > 1000 nM

Problem: Try the compound Cc1nc(-c2cccc3c2-c2ccccc2C3(O)C(F)(F)F)no1 (stereo not drawn) [compound 274]
Result: > 1000 nM

Problem: Try the compound OC1(C(F)(F)F)c2ccccc2-c2ccc(-c3ccccc3)cc21 (stereo not drawn) [compound 97]
Result: 100 to 1000 nM

Problem: Try the compound NC(=O)c1ccc(-c2ccc3c(c2)C(O)(C(F)(F)F)c2ccccc2-3)cc1Cl (stereo not drawn) [compound 239]
Result: 100 to 1000 nM

Problem: Try the compound COC(=O)C1CCN(C(=O)c2ccc3c(c2)C(O)(C(F)(F)F)c2ccccc2-3)C1 (stereo not drawn) [compound 206]
Result: > 1000 nM

###

# system-under-test: human PDHK2 (hPDHK2) (Homo sapiens (Human), UniProt Q15119)
# assay-text: Inhibitory action of PDHK activity in vitro (kinase reaction, residual PDH activity measured)
# Format: biochemical
# assay-conditions: read-out: PDHK inhibitory activity IC50
metric-name: IC50
Number first, unit second: that is the form wanted.

Some entries whose results are on file:
{"compound": "O=C(O)CCCOc1cc(Cl)c2c(c1)C(O)(C(F)(F)F)c1ccccc1-2 (centres unmarked) [compound 478]", "IC50": "433 nM"}
{"compound": "OC1(C(F)(F)F)c2ccccc2-c2ccc(OCc3ccccc3)cc21 (centres unmarked)", "IC50": "1360 nM"}
{"compound": "OC1(C(F)(F)F)c2ccccc2-c2c(Cl)cc(F)cc21 (single isomer, unassigned; (+)) [Compound No. 526]", "IC50": "397 nM"}

Problem: Short answer please: IC50, human PDHK2 (hPDHK2) (Homo sapiens (Human), UniProt Q15119), entry Nc1ccc(-c2ccc3c(c2)C(O)(C(F)(F)F)c2ccccc2-3)cc1 (centres unmarked)
Result: 560 nM

Problem: Try the compound COC(=O)c1cccc2c1-c1cc(F)ccc1C2(O)C(F)(F)F (centres unmarked)
Result: 488 nM

Problem: Try the compound Cc1cc(-c2cnn(CCO)c2)cc2c1-c1ccccc1C2(O)C(F)(F)F (centres unmarked)
Result: 77 nM

Problem: Try the compound Cn1cc(-c2cc(OCCCCO)cc3c2-c2ccccc2C3(O)C(F)(F)F)cn1 (centres unmarked)
Result: 24 nM

Problem: Try the compound Cn1cc(-c2cc(CCO)c3c(c2)C(O)(C(F)(F)F)c2ccccc2-3)cn1 (centres unmarked)
Result: 184 nM
